target desc: KRAS G12C (GMPPNP-loaded) and cRAF Ras-binding domain (Homo sapiens, UniProt P01116, C118S/C51S/C80L/G12C)
Construct: truncated version comprising amino acids 1-169
Sequence (P01116 1-169 isoform P01116-2 G12C/C51S/C80L/C118S): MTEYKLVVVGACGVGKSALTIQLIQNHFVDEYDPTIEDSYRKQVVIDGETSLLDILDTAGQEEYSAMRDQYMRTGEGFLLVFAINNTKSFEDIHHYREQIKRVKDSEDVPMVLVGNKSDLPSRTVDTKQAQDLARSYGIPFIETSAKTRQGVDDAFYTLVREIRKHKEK
test: Inhibition of KRAS G12C and cRAF binding (AlphaScreen)
experimental context: KRAS G12C preloaded with GTP analogue GMPPNP, 2 hours preincubation
pIC50: −log10 of the molar value.
attribute measured: pIC50

CN(c1nc(OC[C@@]23CCCN2C[C@H](F)C3)nc2c(F)c(-c3cccc(Cl)c3C3CC3)ncc12)[C@@H]1CCN(C(=O)C#C[C@]2(C)CCCN2C)C1; 7.00 to 8.00
Cc1cc(N)nc(-c2ncc3c(N(C)[C@@H]4CCN(C(=O)/C=C/c5nc(C(C)(C)O)no5)C4)nc(OC[C@@]45CCCN4C[C@H](F)C5)nc3c2F)c1C(F)(F)F; > 8.00

Task item: Give the reported pIC50 for this molecule. C=CC(=O)N1CC[C@@H](N(C)c2nc(OCC34CCCN3CCC4)nc3c2C[C@@H](C)[C@H](c2nc(N)cc(C)c2C(F)(F)F)C3)C1
Reply: ≤ 6.30

Task item: Give the reported pIC50 for this molecule. Cc1nccc(/C=C/C(=O)N2CC[C@@H](N(C)c3nc(OC[C@@]45CCCN4C[C@H](F)C5)nc4c(F)c(-c5cc(O)cc(Cl)c5C5CC5)ncc34)C2)n1
Reply: > 8.00

Task item: Give the reported pIC50 for this molecule. C=CC(=O)N1CC(CN(C)c2nc(OC[C@@]34CCCN3C[C@H](F)C4)nc3c(F)c(-c4nc(N)cc5cccc(Cl)c45)ncc23)C1
Reply: 7.00 to 8.00

Task item: Give the reported pIC50 for this molecule. CN1CC[C@@H]1/C=C/C(=O)N1CC[C@@H](N(C)c2nc(OC[C@@]34CCCN3C[C@H](F)C4)nc3c(F)c(-c4cccc(Cl)c4C4CC4)ncc23)C1
Reply: > 8.00

Task item: Give the reported pIC50 for this molecule. C=CC(=O)N1CC[C@@H](N(C)c2nc(OC[C@@]34CCCN3C[C@H](F)C4)nc3c2CCN(c2nc(N)cc(C)c2C(F)(F)F)C3)C1
Reply: ≤ 6.30

Task item: Give the reported pIC50 for this molecule. C=CC(=O)N1CC[C@@H](N(C)c2nc(OC[C@@]34CCCN3C[C@H](F)C4)nc3c(F)c(-c4cc(F)cc(F)c4C4CC4)ncc23)C1
Reply: ≤ 6.30

Task item: Give the reported pIC50 for this molecule. CN(c1nc(OC[C@@]23CCCN2C[C@H](F)C3)nc2c(F)c(-c3nc(N)cc4cccc(F)c34)ncc12)[C@@H]1CCN(C(=O)/C=C/c2nc(C(C)(C)O)no2)C1
Reply: > 8.00

Task item: Give the reported pIC50 for this molecule. C=CC(=O)N1CC[C@@H](N(C)c2nc(OC[C@@]34CCCN3C[C@H](F)C4)nc3c(F)c(-c4cccc(C(F)(F)F)c4C4CC4)ncc23)C1
Reply: ≤ 6.30

Task item: Give the reported pIC50 for this molecule. C=CC(=O)N1CC[C@H](O)[C@@H](N(C)c2nc(OC[C@@]34CCCN3C[C@H](F)C4)nc3c(F)c(-c4cccc(Cl)c4C(F)(F)F)ncc23)C1
Reply: ≤ 6.30

Task item: Give the reported pIC50 for this molecule. C=CC(=O)N1CC(CN(C)c2nc(OC[C@@]34CCCN3C[C@H](F)C4)nc3c2C[C@@H](C)[C@H](c2nc(N)cc(C)c2C(F)(F)F)C3)C1 (single isomer, unassigned) [Example 58]
Reply: 6.30 to 7.00

Task item: Give the reported pIC50 for this molecule. CN1CC[C@@H]1/C=C/C(=O)N1CC[C@@H](N(C)c2nc(OC[C@@]34CCCN3C[C@H](F)C4)nc3c(F)c(-c4nc(N)cc5cccc(Cl)c45)ncc23)C1 (single isomer, unassigned) [Example 3]
Reply: 7.00 to 8.00

Task item: Give the reported pIC50 for this molecule. C=CC(=O)N1CC[C@@H](N(C)c2nc(OC[C@@]34CCCN3C[C@H](F)C4)nc3c(F)c(-c4cc(O)c(C)cc4C4CC4)ncc23)C1
Reply: ≤ 6.30

Task item: Give the reported pIC50 for this molecule. Cc1cc(N)nc(-c2ncc3c(N(C)CC4CN(C(=O)/C=C/c5nc(C(C)C)no5)C4)nc(OC[C@@]45CCCN4C[C@H](F)C5)nc3c2F)c1C
Reply: 6.30 to 7.00

Task item: Give the reported pIC50 for this molecule. CN(c1nc(OC[C@@]23CCCN2C[C@H](F)C3)nc2c(F)c(-c3nc(N)cc4cccc(F)c34)ncc12)[C@@H]1CCN(C(=O)/C=C/c2nc(C(C)(F)F)no2)C1
Reply: > 8.00

Task item: Give the reported pIC50 for this molecule. C=CC(=O)N1CC[C@@H](N(C)c2nc(OC[C@@]34CCCN3C[C@H](F)C4)nc3c2C[C@@H](C)[C@H](c2nc(N)cc(C)c2C(F)(F)F)C3)C1
Reply: 6.30 to 7.00

Task item: Give the reported pIC50 for this molecule. C=CC(=O)N1CC[C@@H](N(C)c2nc(OC[C@@]34CCCN3C[C@H](F)C4)nc3c(F)c(-c4c(O)cccc4C4CC4)ncc23)C1
Reply: ≤ 6.30

Task item: Give the reported pIC50 for this molecule. Cc1noc(/C=C/C(=O)N2CC[C@@H](N(C)c3nc(OCC45CCCN4CCC5)nc4c3C[C@@H](C)[C@H](c3nc(N)cc(C)c3C(F)(F)F)C4)C2)n1 [Example 124]
Reply: 6.30 to 7.00

Task item: Give the reported pIC50 for this molecule. C=CC(=O)N1CC[C@@H](N(C)c2nc(OC[C@@]34CCCN3C[C@H](F)C4)nc3c(F)c(-c4nc(N)ccc4C)ncc23)C1
Reply: ≤ 6.30

Task item: Give the reported pIC50 for this molecule. C=CC(=O)N1CC[C@@H](N(C)c2nc(OC[C@@]34CCCN3C[C@H](F)C4)nc3c(F)c(-c4cn[nH]c4C4CC4)ncc23)C1
Reply: ≤ 6.30

Task item: Give the reported pIC50 for this molecule. Cc1cc(N)nc(-c2ncc3c(N(C)[C@@H]4CCN(C#N)C4)nc(OC[C@@]45CCCN4C[C@H](F)C5)nc3c2F)c1C(F)(F)F
Reply: > 8.00

---

Listed here are compounds together with their documented pIC50.
target desc: KRAS G12C (GMPPNP-loaded) and cRAF Ras-binding domain (Homo sapiens, UniProt P01116, C118S/C51S/C80L/G12C)
Construct: truncated version comprising amino acids 1-169
test: Inhibition of KRAS G12C and cRAF binding (AlphaScreen)
experimental context: KRAS G12C preloaded with GTP analogue GMPPNP, 2 hours preincubation
pIC50: −log10 of the molar value.

C=CC(=O)N1CC(CN(C)c2nc(OC[C@@]34CCCN3C[C@H](F)C4)nc3c2C[C@@H](C)[C@H](c2nc(N)cc(C)c2C(F)(F)F)C3)C1 [Example 132]; 6.30 to 7.00
CN(CC1CN(C(=O)/C=C/CN2CCOCC2)C1)c1nc(OC[C@@]23CCCN2C[C@H](F)C3)nc2c(F)c(-c3nc(N)cc4cccc(F)c34)ncc12; ≤ 6.30

Could you now consider this next compound?
Task item: Give the reported pIC50 for this compound. C=CC(=O)N1CC[C@@H](N(C)c2nc(OC[C@@]34CCCN3C[C@H](F)C4)nc3c(F)c(-c4cccc(Cl)c4C(F)(F)F)ncc23)[C@H]1C (single isomer, unassigned) [Example 78]
Reply: 7.00 to 8.00

---

target desc: KRAS G12C (GMPPNP-loaded) and cRAF Ras-binding domain (Homo sapiens, UniProt P01116, C118S/C51S/C80L/G12C)
Construct: truncated version comprising amino acids 1-169
test: Inhibition of KRAS G12C and cRAF binding (AlphaScreen)
experimental context: KRAS G12C preloaded with GTP analogue GMPPNP, 2 hours preincubation
Description: The ability of compounds of Formula (A), Formula (B) and Formula (C), and pharmaceutically acceptable salts and/or isotopologues thereof, to inhibit activity of the GTP-bound form of KRAS G12C can be tested using methods such as the in vitro assay described in Example 179 below. Example 179 describes determining, for various compounds, the half-maximal inhibition (IC50) of KRAS G12C loaded with GTP analogue GMPPNP from binding to cRaf, as the Ras-binding domain (RBD). […]
pIC50: −log10 of the molar value.
Listed here are compounds together with their documented pIC50.

Use the examples below as a reference point.
CN(c1nc(OC[C@@]23CCCN2C[C@H](F)C3)nc2c(F)c(-c3cccc(Cl)c3C3CC3)ncc12)[C@@H]1CCN(C(=O)/C=C/CN2CC[C@@H](F)C2)C1; 7.00 to 8.00
CC(C)c1noc(/C=C/C(=O)N2CC[C@@H](N(C)c3nc(OC[C@@]45CCCN4C[C@H](F)C5)nc4c(F)c(-c5nc(N)ccc5C5CC5)ncc34)C2)n1; 7.00 to 8.00

Could you now consider this next compound?
Task item: Give the reported pIC50 for this compound. C=CC(=O)N1CC[C@@H](N(C)c2nc(OC[C@@]34CCCN3C[C@H](F)C4)nc3c(F)c(-c4cc(O)cc(F)c4C4CC4)ncc23)C1
Reply: > 8.00

From: patent US20260256789A1
